Test system: Staph. aureus SS 08
Type: cell-based
Conditions: Brain Heart Infusion, estolate and RV11-RV15 previously hydrolized, unit assumed
Measured Property: MIC (µg/mL)
Numeric answer only, unit µg/mL assumed.

Form field: reported MIC of CC[C@H]1OC(=O)[C@H](C)[C@@H](O[C@H]2C[C@@](C)(OC)[C@@H](O)[C@H](C)O2)[C@H](C)[C@@H](O[C@@H]2O[C@H](C)C[C@H](N(C)C)[C@H]2O)[C@](C)(O)C[C@@H](C)C(=O)[C@H](C)[C@@H](O)[C@]1(C)O [erythromycin] 0.025

Continue with CC[C@H]1OC(=O)[C@H](C)[C@@H](O[C@H]2C[C@@](C)(OC)[C@@H](O)[C@H](C)O2)[C@H](C)[C@@H](O[C@@H]2O[C@H](C)C[C@H](N(C)C)[C@H]2O)[C@](C)(O)C[C@@H](C)C(=O)[C@H](C)[C@@H](O)[C@]1(C)O [RV04, erythromycin-S-carboxymethylcysteinate] 0.05

----------
Assay: Hematic levels in the rat (absorption by oral route)
Details: 2 hours, 100 mg/kg as erythromycin, average, 100 mg/kg, 120 min
Measured Property: Hematic levels in the rat (µg/mL)
Numeric answer only, unit µg/mL assumed.

Form field: reported Hematic levels in the rat of CC[C@H]1OC(=O)[C@H](C)[C@@H](O[C@H]2C[C@@](C)(OC)[C@@H](O)[C@H](C)O2)[C@H](C)[C@@H](O[C@@H]2O[C@H](C)C[C@H](N(C)C)[C@H]2O)[C@](C)(O)C[C@@H](C)C(=O)[C@H](C)[C@@H](O)[C@]1(C)O [RV04, erythromycin-S-carboxymethylcysteinate] 1.30

Continue with CC[C@H]1OC(=O)[C@H](C)[C@@H](O[C@H]2C[C@@](C)(OC)[C@@H](O)[C@H](C)O2)[C@H](C)[C@@H](O[C@@H]2O[C@H](C)C[C@H](N(C)C)[C@H]2O)[C@](C)(O)C[C@@H](C)C(=O)[C@H](C)[C@@H](O)[C@]1(C)O [RV05, erythromycin-N-acetylcysteinate] 1.41

Continue with CC[C@H]1OC(=O)[C@H](C)[C@@H](O[C@H]2C[C@@](C)(OC)[C@@H](O)[C@H](C)O2)[C@H](C)[C@@H](O[C@@H]2O[C@H](C)C[C@H](N(C)C)[C@H]2O)[C@](C)(O)C[C@@H](C)C(=O)[C@H](C)[C@@H](O)[C@]1(C)O [RV03, erythromycyn-thiazolidin-carboxylate] 1.30

Continue with CC[C@H]1OC(=O)[C@H](C)[C@@H](O[C@H]2C[C@@](C)(OC)[C@@H](O)[C@H](C)O2)[C@H](C)[C@@H](O[C@@H]2O[C@H](C)C[C@H](N(C)C)[C@H]2O)[C@](C)(O)C[C@@H](C)C(=O)[C@H](C)[C@@H](O)[C@]1(C)O [erythromycin] 1.15

----------
I'd be grateful if you could share measured MIC for these entries.
System: C. albicans SS 04
Format: cell-based
Settings: Brain Heart Infusion, estolate and RV11-RV15 previously hydrolized, unit assumed
Numeric answer only, unit mg/L assumed.

Form field: reported MIC of CCC(=O)O[C@H]1[C@H](O[C@@H]2[C@@H](C)[C@H](O[C@H]3C[C@@](C)(OC)[C@@H](O)[C@H](C)O3)[C@@H](C)C(=O)O[C@H](CC)[C@@](C)(O)[C@H](O)[C@@H](C)C(=O)[C@H](C)C[C@@]2(C)O)O[C@H](C)C[C@@H]1N(C)C [RV14] 200

Continue with CC[C@H]1OC(=O)[C@H](C)[C@@H](O[C@H]2C[C@@](C)(OC)[C@@H](O)[C@H](C)O2)[C@H](C)[C@@H](O[C@@H]2O[C@H](C)C[C@H](N(C)C)[C@H]2O)[C@](C)(O)C[C@@H](C)C(=O)[C@H](C)[C@@H](O)[C@]1(C)O [erythromycin] 100

Continue with CC[C@H]1OC(=O)[C@H](C)[C@@H](O[C@H]2C[C@@](C)(OC)[C@@H](O)[C@H](C)O2)[C@H](C)[C@@H](O[C@@H]2O[C@H](C)C[C@H](N(C)C)[C@H]2O)[C@](C)(O)C[C@@H](C)C(=O)[C@H](C)[C@@H](O)[C@]1(C)O [RV04, erythromycin-S-carboxymethylcysteinate] 100
